experiment: self-splicing fitness, log relative to wild type (ln ratio); higher = more splicing; Tetrahymena group I intron in knt gene, E. coli kanamycin selection, DiMSum; sequences stand for … in CUCUCU…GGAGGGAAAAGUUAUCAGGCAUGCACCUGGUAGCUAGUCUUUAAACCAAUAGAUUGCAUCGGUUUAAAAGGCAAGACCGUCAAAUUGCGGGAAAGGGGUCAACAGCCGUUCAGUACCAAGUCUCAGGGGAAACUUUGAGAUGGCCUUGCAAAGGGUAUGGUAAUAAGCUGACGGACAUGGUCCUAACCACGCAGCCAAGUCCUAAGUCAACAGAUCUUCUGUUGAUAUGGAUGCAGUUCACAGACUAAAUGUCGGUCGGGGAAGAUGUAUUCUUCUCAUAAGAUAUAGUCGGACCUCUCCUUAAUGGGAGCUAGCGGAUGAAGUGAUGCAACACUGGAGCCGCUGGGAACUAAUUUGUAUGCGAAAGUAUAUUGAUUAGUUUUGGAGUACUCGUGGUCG; details: 30 °C;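 also: selection with 25 µg/mL kanamycin versus none on LB agar overnight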
Listed next: entries and their corresponding self-splicing fitness (ln).
outcome.measure: self-splicing fitness (ln)

chain: UGCAAGCAAUAUUACGGCGU
obs.value: -1.24

chain: GGUUAGCAAUAUUACGACCU
obs.value: -1.72

chain: CUCGAGCAAUAUUACGGAAG
obs.value: -3.56

chain: AUGCAGCAAUAUUACGCCAU
obs.value: -1.53

chain: UAUGAGCAAUAUUACGAGCU
obs.value: -2.71

chain: UUGAAGCAAUAUUACGCAUU
obs.value: -3.34

chain: GUCCAGCAAUAUUACGCUCC
obs.value: -0.889

chain: AGUUAGCAAUAUUACGAAGC
obs.value: -3.59

chain: CAAAAGCAAUAUUACGAAAG
obs.value: -0.791

chain: UUAUAGCAAUAUUACGCGAG
obs.value: -0.842

chain: AAUGAGCAAUAUUACGUCGC
obs.value: -3.95

chain: CGAAAGCAAUAUUACGACUC
obs.value: -2.84

chain: GAACAGCAAUAUUACGGUGU
obs.value: -2.02

chain: GCGUAGCAAUAUUACGCGCG
obs.value: -3.2

chain: ACAUAGCAAUAUUACGCAAG
obs.value: -1.9

chain: CGAAAGCAAUAUUACGGCAA
obs.value: -1.82

----------
test: self-splicing fitness, log relative to wild type (ln ratio); higher = more splicing; Tetrahymena group I intron in knt gene, E. coli kanamycin selection, DiMSum; sequences stand for … in CUCUCU…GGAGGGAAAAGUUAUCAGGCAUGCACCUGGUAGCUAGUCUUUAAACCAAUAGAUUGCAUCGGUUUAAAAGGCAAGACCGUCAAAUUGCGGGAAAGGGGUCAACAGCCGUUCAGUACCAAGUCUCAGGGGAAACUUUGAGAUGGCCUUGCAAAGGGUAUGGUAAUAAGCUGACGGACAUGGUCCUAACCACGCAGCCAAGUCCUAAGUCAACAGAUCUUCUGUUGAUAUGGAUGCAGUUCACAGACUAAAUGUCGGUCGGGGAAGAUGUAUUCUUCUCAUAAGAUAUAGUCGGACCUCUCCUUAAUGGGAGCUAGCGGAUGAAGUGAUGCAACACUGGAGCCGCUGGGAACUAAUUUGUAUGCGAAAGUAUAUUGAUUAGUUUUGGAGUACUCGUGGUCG; details: 30 °C
// bucketize self-splicing fitness (ln): low (below -3), intermediate (-3 to below -2), high (-2 or more)

chain: UGGCAGCAAUAUUACGACGA
assigned.category: high
//
chain: UAUGAGCAAUAUUACGAGAC
assigned.category: intermediate
//
chain: GAUUAGCAAUAUUACGUAAC
assigned.category: high
//
chain: UCCGAGCAAUAUUACGUCGA
assigned.category: high
//
chain: CUGAAGCAAUAUUACGAUAC
assigned.category: intermediate
//
chain: CAAGAGCAAUAUUACGAUGG
assigned.category: high
//
chain: CUAGAGCAAUAUUACGGGGC
assigned.category: low
//
chain: GUUAAGCAAUAUUACGAAUA
assigned.category: high
//
chain: UCCGAGCAAUAUUACGCCGG
assigned.category: intermediate
//
chain: ACUCAGCAAUAUUACGGUUG
assigned.category: low
//
chain: UUACAGCAAUAUUACGACCU
assigned.category: high
//
chain: GACUAGCAAUAUUACGUGCC
assigned.category: high
//
chain: AGCAAGCAAUAUUACGUAGA
assigned.category: intermediate
//
chain: CACUAGCAAUAUUACGUGGG
assigned.category: low
//
chain: CUUUAGCAAUAUUACGCAAA
assigned.category: intermediate
//
chain: GGGCAGCAAUAUUACGUGCA
assigned.category: high

This collection of values is drawn from the supplement of paper PMC7877785.
